Each recorded value in this set is attributed to ChEMBL document CHEMBL3393003.

# protocol-details: Kinetic solubility in isotonic phosphate buffer at pH 6.5 by nephelometry
# Type: physicochemical
# setup-conditions: read-out: Kinetic_solubility
value-type: solubility kinetic (µg/mL)

Cn1cc(C(=O)N2CCN3C(=O)c4ccncc4[C@@]32c2ccc(Cl)cc2)c(C(F)(F)F)n1: 25
O=C(c1cccnc1)N1CCN2C(=O)c3ccncc3[C@]12c1ccc(Cl)cc1: 50
O=C(c1ccc(F)nc1)N1CCN2C(=O)c3ccncc3[C@]12c1ccc(Cl)cc1: 25

* * *

# protocol-details: Elimination half life in Sprague-Dawley rat at 8.8 mg/kg, iv
# Type: ADME, organism-based
# Design: dose 8.8 mg/kg, route intravenous
# setup-conditions: in vivo, read-out: beta t1/2 (converted)
value-type: half-life (h)
Write the number in h without appending the unit.

Query :: # input compound: `O=C(c1cccnc1)N1CCN2C(=O)c3ccncc3[C@]12c1ccc(Cl)cc1` ; wanted: its half-life
Result :: 4.5

* * *

# protocol-details: Elimination half life in Sprague-Dawley rat at 1.1 mg/kg, iv
# Assay type: ADME, organism-based
# Design: dose 1.1 mg/kg, route intravenous
# setup-conditions: in vivo, read-out: beta t1/2 (converted)
value-type: half-life (h)
Write the number in h without appending the unit.

Query :: # input compound: O=C(c1ccco1)N1CCN2C(=O)c3ccncc3C12c1ccc(Cl)cc1 (racemic) ; wanted: its half-life
Result :: 2.4

* * *

# protocol-details: Plasma clearance in Sprague-Dawley rat at 2 mg/kg, iv
# Type: ADME, organism-based
# Set-up: dose 2 mg/kg, route intravenous
value-type: clearance (mL/min/kg)

O=C(c1ccc(F)cc1)N1CCN2C(=O)c3cc[n+]([O-])cc3C12c1ccc(Cl)cc1 (racemic): 2.4

[a] O=C(c1ccoc1)N1CCN2C(=O)c3ccncc3[C@]12c1ccc(Cl)cc1
[b] O=C(c1ccc(F)cc1)N1CCN2C(=O)c3ccncc3C12c1ccc(Cl)cc1 (racemic)
Query :: Pick the one with the larger clearance: a vs b Selection: enter the item's label.
Result :: a

* * *

# protocol-details: Plasma clearance in Sprague-Dawley rat at 0.9 mg/kg, iv
# Type: ADME, organism-based
# Set-up: dose 0.9 mg/kg, route intravenous
value-type: clearance (mL/min/kg)
Write the number in mL/min/kg without appending the unit.

Query :: # input compound: Cn1cc(C(=O)N2CCN3C(=O)c4ccncc4C32c2ccc(Cl)cc2)c(C(F)(F)F)n1 (racemic) ; wanted: its clearance
Result :: 4

* * *

# protocol-details: Apparent volume of distribution in Sprague-Dawley rat at 8.8 mg/kg, iv
# Type: ADME, organism-based
# Set-up: dose 8.8 mg/kg, route intravenous
# setup-conditions: in vivo, read-out: Vz
value-type: Vd (L/kg)
Write the number in L/kg without appending the unit.

Query :: # input compound: `O=C(c1cccnc1)N1CCN2C(=O)c3ccncc3[C@]12c1ccc(Cl)cc1` ; wanted: its Vd
Result :: 1.7

* * *

# protocol-details: Elimination half life in Sprague-Dawley rat at 3.1 mg/kg, iv
# Type: ADME, organism-based
# Design: dose 3.1 mg/kg, route intravenous
# setup-conditions: in vivo, read-out: beta t1/2 (converted)
value-type: half-life (h)
Write the number in h without appending the unit.

Query :: # input molecule: `Cn1cc(C(=O)N2CCN3C(=O)c4cc[n+]([O-])cc4[C@@]32c2ccc(Cl)cc2)c(C(F)(F)F)n1` ; wanted: its half-life
Result :: 11

* * *

The reader will find reported CC50 at 120 h values listed item by item below.
# protocol-details: Cytotoxicity against human Hep2 cells assessed as reduction in cell viability after 5 days by MTT assay
# Format: cell-based, HEp-2

Cn1cccc1C(=O)N1CCN2C(=O)c3ccncc3C21c1ccc(Cl)cc1 (racemic): > 20 µM
O=C(c1csc(-c2ccncc2)n1)N1CCN2C(=O)c3ccncc3C12c1ccc(Cl)cc1 (racemic): > 15 µM
O=C(c1cccnc1)N1CCN2C(=O)c3ccncc3C12c1ccc(Cl)cc1 (racemic): > 51 µM
O=C(c1ccco1)N1CCN2C(=O)c3ccncc3C12c1ccc(Cl)cc1 (racemic): > 19 µM

Query :: # input compound: O=C(c1ccccn1)N1CCN2C(=O)c3ccncc3C12c1ccc(Cl)cc1 (racemic) ; wanted: its CC50 at 120 h
Result :: > 19 µM

Query :: # input compound: O=C(c1ccsc1)N1CCN2C(=O)c3ccncc3C12c1ccc(Cl)cc1 (racemic) ; wanted: its CC50 at 120 h
Result :: > 18 µM

Query :: # input compound: O=C(c1ccoc1)N1CCN2C(=O)c3ccncc3C12c1ccc(Cl)cc1 (racemic) ; wanted: its CC50 at 120 h
Result :: > 19 µM

Query :: # input compound: Cn1cnc(C(=O)N2CCN3C(=O)c4ccncc4C23c2ccc(Cl)cc2)c1 (racemic) ; wanted: its CC50 at 120 h
Result :: > 20 µM

Query :: # input compound: O=C(c1cccs1)N1CCN2C(=O)c3ccncc3C12c1ccc(Cl)cc1 (racemic) ; wanted: its CC50 at 120 h
Result :: > 18 µM

Query :: # input compound: O=C(c1cccc(Cl)n1)N1CCN2C(=O)c3ccncc3C12c1ccc(Cl)cc1 (racemic) ; wanted: its CC50 at 120 h
Result :: > 17 µM

Query :: # input compound: `Cn1cc(C(=O)N2CCN3C(=O)c4cc[n+]([O-])cc4[C@@]32c2ccc(Cl)cc2)c(C(F)(F)F)n1` ; wanted: its CC50 at 120 h
Result :: > 5 µM

Query :: # input compound: O=C(c1cscn1)N1CCN2C(=O)c3ccncc3C12c1ccc(Cl)cc1 (racemic) ; wanted: its CC50 at 120 h
Result :: > 18 µM

Query :: # input compound: Cn1cncc1C(=O)N1CCN2C(=O)c3ccncc3C21c1ccc(Cl)cc1 (racemic) ; wanted: its CC50 at 120 h
Result :: > 20 µM

Query :: # input compound: O=C(c1ccno1)N1CCN2C(=O)c3ccncc3C12c1ccc(Cl)cc1 (racemic) ; wanted: its CC50 at 120 h
Result :: > 19 µM

Query :: # input compound: O=C(c1ccon1)N1CCN2C(=O)c3ccncc3C12c1ccc(Cl)cc1 (racemic) ; wanted: its CC50 at 120 h
Result :: > 20 µM

* * *

# protocol-details: Apparent volume of distribution in Sprague-Dawley rat at 2 mg/kg, iv
# Format: ADME, organism-based
# Parameters: dose 2 mg/kg, route intravenous
# setup-conditions: in vivo, read-out: Vz
value-type: Vd (L/kg)

O=C(c1ccc(F)cc1)N1CCN2C(=O)c3cc[n+]([O-])cc3C12c1ccc(Cl)cc1 (racemic): 1.3

[1] O=C(c1ccoc1)N1CCN2C(=O)c3ccncc3[C@]12c1ccc(Cl)cc1
[2] O=C(c1ccc(F)cc1)N1CCN2C(=O)c3ccncc3C12c1ccc(Cl)cc1 (racemic)
Query :: Pick the one with the larger Vd: 1 vs 2 Selection: enter the item's label.
Result :: 1
(1: 11 L/kg, 2: 6 L/kg)

* * *

# protocol-details: Cmax in Sprague-Dawley rat at 19 mg/kg, po
# Assay type: ADME, organism-based
# Parameters: dose 19 mg/kg, route oral
# setup-conditions: in vivo
value-type: Cmax (µM)

O=C(c1cccnc1)N1CCN2C(=O)c3ccncc3[C@]12c1ccc(Cl)cc1 [BTA-9881]: 23

[P] Cn1cc(C(=O)N2CCN3C(=O)c4ccncc4C32c2ccc(Cl)cc2)c(C(F)(F)F)n1 (racemic)
[Q] O=C(c1ccc(F)nc1)N1CCN2C(=O)c3ccncc3[C@]12c1ccc(Cl)cc1
[R] O=C(c1ccoc1)N1CCN2C(=O)c3ccncc3[C@]12c1ccc(Cl)cc1
Query :: Ordering: ascending Cmax. A ranking is expressed here by listing the labels in the requested order.
Result :: R, P, Q
(R: 0.77 µM, P: 3.6 µM, Q: 8.8 µM)

* * *

# protocol-details: Half life in Sprague-Dawley rat at 18 mg/kg, po
# Type: ADME, organism-based
# Design: dose 18 mg/kg, route oral
# setup-conditions: in vivo
value-type: half-life (h)
Write the number in h without appending the unit.

Query :: # input molecule: `Cn1cc(C(=O)N2CCN3C(=O)c4cc[n+]([O-])cc4[C@@]32c2ccc(Cl)cc2)c(C(F)(F)F)n1` ; wanted: its half-life
Result :: 11

* * *

# protocol-details: Oral bioavailability in Sprague-Dawley rat at 20 mg/kg
# Format: ADME, organism-based
# setup-conditions: in vivo
value-type: bioavailability (%)
Write the number in % without appending the unit.

Query :: # input compound: O=C(c1ccco1)N1CCN2C(=O)c3ccncc3C12c1ccc(Cl)cc1 (racemic) ; wanted: its bioavailability
Result :: 21

* * *

# protocol-details: Elimination half life in Sprague-Dawley rat at 2.1 mg/kg, iv
# Assay type: ADME, organism-based
# Set-up: dose 2.1 mg/kg, route intravenous
# setup-conditions: in vivo, read-out: beta t1/2 (converted)
value-type: half-life (h)
Write the number in h without appending the unit.

Query :: # input molecule: O=C(c1ccc(F)nc1)N1CCN2C(=O)c3cc[n+]([O-])cc3C12c1ccc(Cl)cc1 (racemic) ; wanted: its half-life
Result :: 1.7
